Cited source: ChEMBL document CHEMBL1148788

ASSAY DETAILS: Displacement of [3H]methyllycaconitine from chimeric alpha-7nAChR S150A mutant/5HT3A receptor in tsA201 cells
Type: cell-based, Homo sapiens
pKi: −log10 of the molar value.
Readings of pKi for the listed compounds
ENDPOINT NAME: pKi

COMPOUND	ENDPOINT NAME	REPORTED MEASUREMENT
C[N+](C)(C)Cc1c2n(c3ccccc13)Cc1c(C[N+](C)(C)C)c3ccccc3n1C2.[I-].[I-]	pKi	5.22
O=[N+]([O-])c1ccc(C[N+]23CC[C@@H]4[C@@H]5[C@@H]6[C@@H](OCC=C(C2)[C@@H]6C[C@@H]43)N2c3ccccc3[C@@]34CC[N+]6(Cc7ccc([N+](=O)[O-])cc7)CC7=CCO[C@H]([C@@H]([C@H]23)[C@H]7C[C@@H]46)N5c2ccccc2)cc1.[Br-].[Br-] (some centres not stated)	pKi	7.46

###

EXPERIMENTAL SYSTEM: Neuronal acetylcholine receptor; alpha3/beta4 (Rattus norvegicus, UniProt P04757+P12392)
Sequence (P04757 whole entry): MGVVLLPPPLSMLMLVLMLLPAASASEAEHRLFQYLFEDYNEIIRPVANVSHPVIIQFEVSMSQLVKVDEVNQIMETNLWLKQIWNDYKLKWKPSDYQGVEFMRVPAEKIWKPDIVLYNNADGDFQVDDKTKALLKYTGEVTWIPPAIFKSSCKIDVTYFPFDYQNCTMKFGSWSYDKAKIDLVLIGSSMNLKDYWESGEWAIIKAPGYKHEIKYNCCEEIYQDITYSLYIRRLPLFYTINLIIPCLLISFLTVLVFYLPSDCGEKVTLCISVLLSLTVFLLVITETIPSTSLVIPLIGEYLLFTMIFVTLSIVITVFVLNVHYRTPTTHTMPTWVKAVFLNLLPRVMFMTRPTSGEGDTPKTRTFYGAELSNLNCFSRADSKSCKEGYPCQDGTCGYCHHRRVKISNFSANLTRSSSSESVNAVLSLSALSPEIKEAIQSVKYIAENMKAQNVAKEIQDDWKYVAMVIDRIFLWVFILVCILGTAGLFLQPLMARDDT
Sequence (P12392 whole entry): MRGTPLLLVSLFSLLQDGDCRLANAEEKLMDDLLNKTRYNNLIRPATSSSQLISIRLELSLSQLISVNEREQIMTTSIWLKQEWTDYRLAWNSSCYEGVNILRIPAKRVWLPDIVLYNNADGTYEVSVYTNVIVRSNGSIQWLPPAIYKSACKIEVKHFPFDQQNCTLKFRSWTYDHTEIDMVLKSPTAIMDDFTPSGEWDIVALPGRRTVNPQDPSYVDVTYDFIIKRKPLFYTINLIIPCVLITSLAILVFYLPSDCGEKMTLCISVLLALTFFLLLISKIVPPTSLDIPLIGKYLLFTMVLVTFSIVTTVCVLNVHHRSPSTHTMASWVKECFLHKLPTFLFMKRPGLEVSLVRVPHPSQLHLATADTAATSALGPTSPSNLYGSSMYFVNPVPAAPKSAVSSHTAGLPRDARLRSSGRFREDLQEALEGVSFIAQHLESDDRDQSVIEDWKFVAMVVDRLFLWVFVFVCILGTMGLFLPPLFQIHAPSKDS
ASSAY DETAILS: Antagonist activity at rat alpha3beta4 nAChR expressed in HEK293 cells by FMP assay
Type: functional, cell-based, Homo sapiens
TEST CONTEXT: hek293
ENDPOINT NAME: pIC50

MOLECULE	ENDPOINT NAME	REPORTED MEASUREMENT
O=[N+]([O-])c1ccc(C[N+]23CCC4[C@@H]5/C(=C\N6c7ccccc7[C@@]78CC[N+]9(Cc%10ccc([N+](=O)[O-])cc%10)CC%10=CCO[C@H]([C@@H]([C@H]67)[C@H]%10C[C@@H]89)N5c5ccccc5)[C@@H](C[C@@H]42)/C(=C\CO)C3)cc1.[Br-].[Br-] (stereo partly drawn)	pIC50	< 4
O=[N+]([O-])c1ccc(C[N+]23CC[C@@H]4[C@@H]5[C@@H]6[C@@H](OCC=C(C2)[C@@H]6C[C@@H]43)N2c3ccccc3[C@@]34CC[N+]6(Cc7ccc([N+](=O)[O-])cc7)CC7=CCO[C@H]([C@@H]([C@H]23)[C@H]7C[C@@H]46)N5c2ccccc2)cc1.[Br-].[Br-] (stereo partly drawn)	pIC50	< 4
CC(=O)OCC[N+]12CC[C@@H]3[C@@H]4[C@@H]5[C@@H](OCC=C(C1)[C@@H]5C[C@@H]32)N1c2ccccc2[C@@]23CC[N+]5(CCOC(C)=O)CC6=CCO[C@H]([C@@H]([C@H]12)[C@H]6C[C@@H]35)N4c1ccccc1.[Br-].[Br-] (stereo partly drawn)	pIC50	< 4

###

ASSAY DETAILS: Displacement of [3H]methyllycaconitine from chimeric alpha-7nAChR Y195F mutant/5HT3A receptor in tsA201 cells
Type: cell-based, Homo sapiens
Label scheme for pKi: lower than 6 is NO, 6 and above is YES.

COMPOUND	ASSIGNED CATEGORY
O=[N+]([O-])c1ccc(C[N+]23CC[C@@H]4[C@@H]5[C@@H]6[C@@H](OCC=C(C2)[C@@H]6C[C@@H]43)N2c3ccccc3[C@@]34CC[N+]6(Cc7ccc([N+](=O)[O-])cc7)CC7=CCO[C@H]([C@@H]([C@H]23)[C@H]7C[C@@H]46)N5c2ccccc2)cc1.[Br-].[Br-] (stereo partly specified)	YES
CCN1C[C@]2(COC(=O)c3ccccc3N3C(=O)C[C@H](C)C3=O)CC[C@H](OC)[C@@]34[C@@H]5C[C@H]6[C@H](OC)[C@@H]5[C@](O)(C[C@@H]6OC)[C@](O)([C@@H](OC)[C@H]23)[C@@H]14	YES
C[N+](C)(C)Cc1c2n(c3ccccc13)Cc1c(C[N+](C)(C)C)c3ccccc3n1C2.[I-].[I-]	NO
C[N+]12CC[C@@H]3[C@@H]4[C@@H]5[C@@H](OCC=C(C1)[C@@H]5C[C@@H]32)N1c2ccccc2[C@@]23CC[N+]5(C)CC6=CCO[C@H]([C@@H]([C@H]12)[C@H]6C[C@@H]35)N4c1ccccc1.[I-].[I-] (stereo partly specified)	YES
